Target Desc: Neuronal acetylcholine receptor subunit alpha-7 (Homo sapiens)
Sequence (P36544 whole entry): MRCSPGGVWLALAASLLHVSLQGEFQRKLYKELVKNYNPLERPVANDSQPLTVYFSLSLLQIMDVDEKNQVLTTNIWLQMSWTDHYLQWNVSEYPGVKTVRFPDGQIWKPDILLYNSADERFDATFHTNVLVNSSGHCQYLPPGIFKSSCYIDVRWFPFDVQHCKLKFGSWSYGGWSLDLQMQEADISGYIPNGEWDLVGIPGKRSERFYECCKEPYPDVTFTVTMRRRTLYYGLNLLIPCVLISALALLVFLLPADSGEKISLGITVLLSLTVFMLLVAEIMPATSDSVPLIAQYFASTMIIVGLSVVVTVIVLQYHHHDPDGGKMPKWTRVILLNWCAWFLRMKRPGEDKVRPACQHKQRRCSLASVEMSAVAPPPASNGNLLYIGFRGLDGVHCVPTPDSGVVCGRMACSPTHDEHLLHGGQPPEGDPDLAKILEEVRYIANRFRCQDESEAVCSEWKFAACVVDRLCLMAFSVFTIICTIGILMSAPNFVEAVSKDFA
Measurement Notes: Displacement of [3H]Epibatidine from human alpha7 nACHR expressed in CHO cell membranes after 2 hrs by liquid scintillation counting analysis
Listed here are compounds together with their documented pKi.
// returns pKi (minus log10 of molar concentration), number only

Known pKi results, listed for orientation:
The compound C[C@@H]1C[C@H]1C(=O)N1CC2CNCC2C1 (mixture of isomers) showed pKi equal to 5.72

The compound listed as `CCCNC(=O)[C@H]1C[C@@H]2CNC[C@@H](C2)C1` shows pKi equal to 5.00

GET /value?item= O=C([C@@H]1C[C@H]1F)N1CC2CNCC(C2)C1 (mixture of isomers) &field=pKi returns 8.00

Form field pKi, entry O=C([C@H]1C[C@@H]1F)N1CC2CNCC(C2)C1 (mixture of isomers) : 6.40

pKi reported for this compound O=C([C@@H]1C[C@@H]1F)N1CC2CNCC(C2)C1 (mixture of isomers) : 6.52

The compound listed as CCC(=O)N1CC2CNCC(C2)C1 (mixture of isomers) has a reported pKi of 5.80

Continuing:
Sample C[C@@H]1C[C@@H]1C(=O)N1CC2CNCC2C1 (mixture of isomers) ; pKi observed: 6.46

For record `CC(C)NC(=O)[C@H]1C[C@@H]2CNC[C@@H](C2)C1` the listed pKi is 4.96

Entry C[C@H]1C[C@@H]1C(=O)N1CC2CNCC2C1 (mixture of isomers) ; pKi = 4.00

Lab note: measured pKi of O=C([C@@H]1C[C@H]1F)N1CC2CNCC2C1 (mixture of isomers) was 6.00

// field: pKi; key: C[C@H]1C[C@H]1C(=O)N1CC2CNCC2C1 (mixture of isomers) ; value = 5.35

---

Target Desc: Neuronal acetylcholine receptor; alpha4/beta2 (Homo sapiens, UniProt P17787+P43681)
Measurement Notes: Agonist activity at alpha4beta2 nACHR in human SHEP1 cell membranes assessed as stimulation of calcium flux by FLIPR assay relative to control
Type: cell-based
Lab note: cut-off is 80%. Strictly less in Emax is Met. Exactly 80% or more is Not met.

Sample answers from the record:
Q: Strictly below 80% in Emax? CCC(=O)N1CC2CNCC2C1 (mixture of isomers)
Ans: Not met

Q: Hi there! Is Emax for O=C([C@H]1C[C@H]1F)N1CC2CNCC(C2)C1 (mixture of isomers) below 80%, do you know?
Ans: Met

Q: Does this molecule meet the criterion Emax < 80%? C[C@@H]1C[C@H]1C(=O)N1CC2CNCC2C1 (mixture of isomers)
Ans: Not met

Q: Lab note: Emax threshold 80%. Does this molecule come in strictly under it? C[C@H]1C[C@H]1C(=O)N1CC2CNCC2C1 (mixture of isomers)
Ans: Not met

Q: Is 80% strictly greater than the molecule's reported Emax? molecule: C[C@@H]1C[C@@H]1C(=O)N1CC2CNCC(C2)C1 (mixture of isomers)
Ans: Met

Continuing:
Q: Field: below-cutoff. Rule: recorded Emax strictly less than 80%. Subject: C[C@H]1C[C@@H]1C(=O)N1CC2CNCC2C1 (mixture of isomers)
Ans: Met

Q: Confirm or reject: Emax of O=C([C@H]1C[C@H]1F)N1CC2CNCC2C1 (mixture of isomers) lies strictly below 80%
Ans: Not met

Q: Check if Emax falls below 80% for COC(=O)[C@H]1C[C@H]2CNC[C@H]2C1 (mixture of isomers) .
Ans: Not met

Q: Is the reported Emax for C[C@@H]1C[C@@H]1C(=O)N1CC2CNCC2C1 (mixture of isomers) strictly below 80%?
Ans: Not met

Q: Determine whether this molecule shows Emax lower than 80% (ties excluded): O=C([C@@H]1C[C@H]1F)N1CC2CNCC(C2)C1 (mixture of isomers)
Ans: Met

Q: Criterion: Emax strictly below 80%. Is it met by C[C@H]1C[C@H]1C(=O)N1CC2CNCC(C2)C1 (mixture of isomers) ?
Ans: Met

Q: Report whether reported Emax is lower than 80% (strictly) for `CCCNC(=O)[C@H]1C[C@@H]2CNC[C@@H](C2)C1`
Ans: Met

Q: Below 80% on Emax? Entry O=C([C@@H]1C[C@H]1F)N1CC2CNCC2C1 (mixture of isomers)
Ans: Not met

Q: Hello, I'm reviewing records and need to know if Emax of `O=C(C1CC1)[C@H]1C[C@@H]2CNC[C@@H](C2)C1` is below 80%. Could you check?
Ans: Met
